Provide the recorded IC50 (ng/ml), neutralization of RVFV-SA51 for the entries that follow.
Target: Gn of RVFV-SA51 (Rift Valley Fever Virus strain SA51)
Experiment: cell-based or functional assay
Answers are plain numbers, in ng/mL.

Examples from the recorded data:
binder	reading
RVFV-405 (antibody, V domains shown) VH: EVQLVESGGGLVQPGGSLRLSCAASGFTFSSFEMNWVRQAPGKGLEWVSYISRSGTTKHYADSVKGRFAISRDDAKNSLYLQMNSLRAEDTAVYYCARGGARVLQAPLDYWGQGTLVTVSS VL: SYELTQPPSVSVAPGETARITCGGTNIGNKSVRWYQQKPGQAPVLVIYYDNDRPSGIPERFSGSNSGNTATLTISRVEAGDEADYYCQVWDNSSDHAVFGGGTKLTVL	30000
RVFV-436 (antibody, V domains shown) VH: QVQLHESGPGLVKPSETLSLTCGVSGYTISSDYYWGWIRQPPGKGLEWIGSIYQNGHTYYNPSLKSRVTISVDTSKNQFSLELSSVTAADTAVYYCARRGDCGADCYHFDYWGRGTAVTVSS VL: SYEVTQPLSVSVSPGQTASITCSGEKLENKYVSWYQQKPGQSPVLVMYQDFKRPSGIPERFSGSNSGNTATLTISGTQAMDEADYYCQAWDRSTFYVFGTGTKVTVVG	4.57

// next item, IC50 (ng/ml), neutralization of RVFV-SA51 requested
Record RVFV-379 (antibody, V domains shown) VH: QVQLQESGPGLVKPSQTLSLTCTVSGDSISGGDYYWSWIRRPAGEGLEWIGRVHTTGSTDYNPSLRTRVTISIDTSKNHFFLKMTSVTAADTAVYYCAREGDYSAWFDPWGQGALVTVSS VL: DIQMTQSPSSLSASIGDRVTITCRASQHIESFLNWYQQKPGKAPKLLIYIASTLQGGVPSRFSGRGFGTDFTLTINSLQPEDFATYYCQQSYTISPITFGQGTRLEIK . Reported IC50 (ng/ml), neutralization of RVFV-SA51: 13
